- METHOD: Placebo controlled, dose escalation pharmacokinetic study of oral (Z)-Endoxifen capsules (serum endoxifen; incl. accumulation ratios and dose linearity)
- Type: in vivo, human
- CONDITION INFO: female, human, serum, oral, 2 mg, Day 1; 2 mg; N 6; read-out: AUC0-inf, Mean
PROPERTY NAME: AUC(0-inf) (ng·h/mL)
The figure you give is taken to be in ng·h/mL; do not add the unit.

Query string: Specify AUC(0-inf) for CC/C(=C(\c1ccc(O)cc1)c1ccc(OCCNC)cc1)c1ccccc1 [(Z)-Endoxifen] and stop.
Result string: 1110

====

- METHOD: Placebo controlled, dose escalation pharmacokinetic study of oral (Z)-Endoxifen capsules (serum endoxifen; incl. accumulation ratios and dose linearity)
- Format: in vivo, human
- CONDITION INFO: female, human, serum, po, 4 mg, Day 1; dose 4 mg oral; Median, N 6; read-out: AUC to last time point
PROPERTY NAME: AUC (ng·h/mL)
The figure you give is taken to be in ng·h/mL; do not add the unit.

Query string: Specify AUC for CC/C(=C(\c1ccc(O)cc1)c1ccc(OCCNC)cc1)c1ccccc1 [(Z)-Endoxifen] and stop.
Result string: 1420

The reported numbers originate from patent US12275684B2.
